- Test system: MARK1;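 also: KINOMEscan kinase panel screen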
- measurement_conditions: concentration: 1 μM,replicates: in singlicate; n = 1
As shown below, each of these compounds has a reported %Inh value.
readout_type: %Inh (%)

Nc1nc(Nc2ccccc2)cc(-c2ccc3c(N)n[nH]c3c2)n1 [GSK2225749] ... 8
CCn1c(-c2nonc2N)nc2c(C#CC(C)(C)O)nc(OCCN)cc21.Cl.Cl [GSK902056] ... 0
O=C(NCCCN1CCOC1=O)c1cnc(NCc2cc(Cl)ccc2Cl)nc1NC1CCCC1 ... 13
Cc1ccc2c(-c3ccncc3)c(-c3ccc(F)cc3)nn2c1.Cl [GW461484] ... 0
